Sourced from patent US20240301319A1

experiment notes: Volatility of perfuming compounds (Tables 4 to 10), with top/middle/bottom note type
Type: physicochemical
setup conditions: Table 6, perfuming compounds having a fruity note; note type by volatility
parameter: Type

Some molecules with known Type results, for comparison:
| molecule | Type |
| --- | --- |
| COc1cc(C=O)ccc1OC(=O)C(C)C | Bottom |
| CC1COCc2cc3c(cc21)C(C)(C)C(C)C3(C)C (racemic) | Bottom |
| C=CCOC(=O)COC1CCCCC1 [ALLYL (CYCLOHEXYLOXY)ACETATE] | Bottom |
| CC1=CCC2C(C1)C1CC2C2(C1)OC2C (racemic) | Bottom |
| C/C=C/C(=O)C1=C(C)CCCC1(C)C | Middle |
| CC/C=C(\C)C(O)CCCCC (racemic) [(+−)-(E)-4-METHYL-3-DECEN-5-OL] | Middle |
| CC(C)C(=O)OCCc1ccccc1 [2-PHENYLETHYL ISOBUTYRATE] | Middle |
| CC(=O)/C(C)=C/C1C(C)=CCCC1(C)C (racemic) | Bottom |

The molecule listed as CCOC(=O)/C=C/c1ccccc1 [ETHYL (E)-3-PHENYL-2-PROPENOATE] has a reported Type of Bottom

----------
experiment notes: Volatility of perfuming compounds (Tables 4 to 10), with top/middle/bottom note type
Type: physicochemical
setup conditions: Table 10, perfuming compounds having a woody note; note type by volatility
parameter: Type

Some compounds with known Type results, for comparison:
| compound | measured value |
| --- | --- |
| CC1(C)CCC[C@@]2(C)[C@H]1CC[C@@]1(C)OCC[C@@H]21 | Bottom |
| CC(=O)O[C@@H]1CC2CC[C@]1(C)C2(C)C | Top |
| CC(=O)/C(C)=C(/C)C(C)C(C)(C)C (racemic) | Top |
| CC1C(C)(C)C2=C(C(=O)CCC2)C1(C)C (stereo not drawn) | Bottom |
| CC1(C)C2C[C@H]3CCC(=O)C=C3[C@@H]1C2 (single isomer, unassigned; (+)) | Bottom |

Hello, I would appreciate it if you could give Type for each entry below.
1. CC(=O)/C=C/C1=C(C)CCCC1(C)C
2. CCOC(C)OC1CCCCCCCCCCC1 (racemic) [(+−)-(1-ethoxyethoxy)cyclododecane]
3. CCCCO [1-BUTANOL]
4. COC(C)(C)CCCC(C)C(C)O (racemic)
5. CC(=O)/C(C)=C/C1C(C)=CCCC1(C)C (racemic)
6. CCCC(O)CCC1C(C)CCC(C)C1(C)C (racemic)

1: Bottom; 2: Bottom; 3: Top; 4: Bottom; 5: Top; 6: Bottom

----------
For each record, write down the corresponding Volatility.
experiment notes: Volatility of perfuming compounds (Tables 4 to 10), with top/middle/bottom note type
Assay type: physicochemical
setup conditions: Table 8, perfuming compounds having a sweet note
Give bare numbers, in μg/l air.

| compound | Volatility / μg/l air |
| --- | --- |
| CCCCCC1CCCC1O (racemic) [(+−)-2-PENTYL-1-CYCLOPENTANOL] | 97.79 |
| C/C=C/C(=O)[C@@H]1[C@@H](C)C=CCC1(C)C (racemic) | 143.53 |

Hello, I would appreciate it if you could give Volatility for each entry below.
1. COc1cc(C=O)ccc1O [4-hydroxy-3-methoxybenzaldehyde]
2. CC1=C(O)C(=O)CC1 [2-HYDROXY-3-METHYL-2-CYCLOPENTEN-1-ONE]
3. OCCc1ccccc1 [2-PHENYLETHANOL]

1: 4.24; 2: 396.50; 3: 159.75

----------
experiment notes: Odor threshold and odor value of perfuming compounds (Tables 4 to 10)
setup conditions: Table 9, gourmand note
parameter: Odor Threshold (μg/l air)
Numbers only, in μg/l air.

Hello, I would appreciate it if you could give Odor Threshold for each entry below.
1. C/C=C/c1ccc(O)c(OC)c1 [2-methoxy-4-[(1E)-1-propen-1-yl]phenol]
2. CCCCCCCC1CCC(=O)O1 (racemic) [(+−)-5-heptyldihydro-2(3H)-furanone]
3. CCCCCC(=O)OCC [ETHYL HEXANOATE]
4. CCC(=O)/C=C/C1=C(C)CCCC1(C)C
5. CCCCCC(=O)O
6. CCCC=C1OC(=O)c2ccccc21 [3-BUTYLIDENE-1-BENZO[C]FURANONE]
7. CC(=O)OCCC1CCCCC1 [2-CYCLOHEXYLETHYL ACETATE]
8. CC(=O)C(C)O (racemic) [(+−)-3-HYDROXY-2-BUTANONE]

1. 6.63E−06
2. 3.16E−05
3. 9.11E−04
4. 1.16E−04
5. 1.82E−02
6. 8.65E−04
7. 4.49E−02
8. 1.46E−02

Hello, I would appreciate it if you could give Odor Threshold for each entry below.
1. CCCCCC1CCCC1=O (racemic) [(+−)-2-pentylcyclopentanone]
2. CCCCOC(C)=O [BUTYL ACETATE]
3. CC/C=C\CCOC(=O)C/C=C\CC [(3Z)-3-hexen-1-yl (3Z)-3-hexenoate]
4. COc1cccc(OC)c1O
5. C/C=C/c1ccc(OC)cc1 [1-methoxy-4-[(1E)-1-propen-1-yl]benzene]
6. CCCCC1CCC(=O)O1 (racemic) [(+−)-4-OCTANOLIDE]

1. 1.28E−03
2. 4.18E−01
3. 5.17E−02
4. 8.01E−06
5. 1.23E−03
6. 2.32E−05

Hello, I would appreciate it if you could give Odor Threshold for each entry below.
1. COc1cc(C=O)ccc1O [4-hydroxy-3-methoxybenzaldehyde]
2. CCCCCCC1CCC(=O)O1 (racemic) [(+−)-4-DECANOLIDE]
3. COc1cc(C=O)ccc1OC(=O)C(C)C

6.75E−06
1.61E−04
7.33E−05

Hello, I would appreciate it if you could give Odor Threshold for each entry below.
1. C[C@@H]1CC[C@H]2[C@H](C)C(=O)O[C@@H]2C1
2. CCOC(=O)CC1(C)OCCO1 [ETHYL 2-METHYL-1,3-DIOXOLANE-2-ACETATE]

["3.46E−05", "1.62E−03"]

Hello, I would appreciate it if you could give Odor Threshold for each entry below.
1. COc1ccc(CCC(C)=O)cc1
2. C=CCOC(=O)CCCCCC [ALLYL HEPTANOATE]
3. CC/C=C\CC1=C(C)CCC1=O
4. COc1ccc2ccccc2c1
5. OCCc1ccccc1
6. C=C(C)CC(C)OC(=O)C(C)C (racemic)
7. CCC(CC(C)CC)=NO (centres unmarked)

["5.88E−06", "1.75E−02", "2.16E−04", "1.02E−05", "1.02E−04", "2.26E−01", "8.80E−03"]

----------
experiment notes: Volatility of perfuming compounds (Tables 4 to 10), with top/middle/bottom note type
Format: physicochemical
setup conditions: Table 8, perfuming compounds having a sweet note
parameter: Volatility
The answer should read as a number with its unit following.

Some molecules with known Volatility results, for comparison:
| molecule | measured value |
| --- | --- |
| C/C=C/c1ccc(O)c(OC)c1 [2-methoxy-4-[(1E)-1-propen-1-yl]phenol] | 11.28 μg/l air |
| CCCC1CCC(=O)O1 (racemic) [(+−)-4-HEPTANOLIDE] | 295.34 μg/l air |
| CC(=O)C(C)O (racemic) [(+−)-3-HYDROXY-2-BUTANONE] | 33382.87 μg/l air |
| CCC(=O)/C=C/C1=C(C)CCCC1(C)C | 15.81 μg/l air |
| C=C(C)CC(C)OC(=O)C(C)C (racemic) | 9902.98 μg/l air |
| COc1cc(C)ccc1O [2-METHOXY-4-METHYLPHENOL] | 306.61 μg/l air |
| Cc1cnc(C)c(C)n1 [2,3,5-TRIMETHYLPYRAZINE] | 7897.31 μg/l air |
| CC/C=C\CC1=C(C)CCC1=O | 56.72 μg/l air |

Hello, I would appreciate it if you could give Volatility for each entry below.
1. CC(C)CCOCCc1ccccc1 [3-METHYLBUTYL 2-PHENYLETHYL ETHER]
2. CC=CC(=O)C(C)CC (centres unmarked) [5-METHYL-2-HEPTEN-4-ONE]
3. CC(C)Cc1ccc2ccccc2n1 [2-ISOBUTYLQUINOLINE]

1: 110.11 μg/l air; 2: 5525.83 μg/l air; 3: 8.73 μg/l air

----------
experiment notes: Odor threshold and odor value of perfuming compounds (Tables 4 to 10)
setup conditions: Table 4, watery note
parameter: Odor Threshold (μg/l air)
Numbers only, in μg/l air.

Some compounds with known Odor Threshold (μg/l air) results, for comparison:
| compound | readout unit | Odor Threshold (μg/l air) |
| --- | --- | --- |
| CC(C)c1ccc2c(c1)OCC(=O)CO2 | μg/l air | 3.20E−06 |
| CC(C=O)Cc1ccc2c(c1)OCO2 (racemic) | μg/l air | 2.23E−04 |
| CCCCCCC#CC(=O)OC [METHYL 2-NONYNOATE] | μg/l air | 1.60E−03 |
| CC(CC=O)CCCC(C)(C)O (racemic) [(+−)-7-hydroxy-3,7-dimethyloctanal] | μg/l air | 6.98E−03 |
| CCCCCCCCCCCC#N | μg/l air | 3.20E−06 |
| CCCCCCCCCC(C)C=O (racemic) [(+−)-2-methylundecanal] | μg/l air | 7.24E−05 |
| CCCCCCCCC(C)C=O (racemic) [(+−)-2-methyldecanal″] | μg/l air | 9.00E−04 |
| COc1ccc(CC(C)C=O)cc1 (racemic) | μg/l air | 9.79E−03 |

Hello, I would appreciate it if you could give Odor Threshold (μg/l air) for each entry below.
1. Cc1ccc2c(c1)CC(C)(CO)C2 (racemic)
2. CCCCCCCCCC=O
3. CC(C)(C)c1ccc2c(c1)OCC(=O)CO2
4. CC/C=C\CC/C=C/C=O

1: 1.28E−04; 2: 1.92E−03; 3: 1.53E−04; 4: 1.46E−04
